tested on: Plasmodium berghei; assay: Screen against P. berghei liver stage (PbLuc), transformed with Luciferase, at 2uM; format: functional, HepG2; conditions: tested at 2 uM
Hit rate of the full screen: of about 68,000 compounds, about 2,700 (4%) showed an effect of 50% or more. The sample holds strong results, similar compounds and a random draw of the others, so the mix is not that of the screen.
endpoint: INHIBITION (%)
Field: numeric (%). Do not append units.

Some solved cases for reference:
Cc1cnn(C2CCCN(C(=O)c3ccc(O)nc3)C2)c1 (stereo not drawn)
45.83
Cc1cccc(-n2cc(C(=O)N3CCCC(n4cccn4)C3)nn2)c1 (stereo not drawn)
58.53
O=C(CC(F)(F)F)NCC(O)c1ccc2ccccc2c1 (stereo not drawn)
23.81

# get_value(readout='INHIBITION', item= CO[C@H]1CC[C@H]2[C@H]1OCCN2C(=O)C1=CCCC1 ) 28.81

Now give it for Cc1cnn(C2CCCN(C(=O)c3ccc(NC4CC4)nc3)C2)c1 (stereo not drawn) too. 72.31
